organism: Bos taurus; test: Relative binding affinity(RBA) as ratio of progesterone and compound required to displace [3H]-org 2058 binding to Progesterone receptor by 50%
Measured RBA of individual entries

>>> measurement("CC(=O)Oc1ccc2c(c1)cc1n2CCc2cc(OC(C)=O)c(OC(C)=O)cc2-1")
"< 0.01"

Item: `CCc1cc2cc(OC(C)=O)ccc2c2cc3ccc(OC(C)=O)cc3n12` | RBA: < 0.01

Documented RBA of CCC1Cn2c(cc3cc(OC(C)=O)ccc32)-c2ccc(OC(C)=O)cc21 (stereo not drawn) : < 0.01
